Target: 5-HT1A receptor (Rattus norvegicus, UniProt P19327)
Sequence (P19327 1-422): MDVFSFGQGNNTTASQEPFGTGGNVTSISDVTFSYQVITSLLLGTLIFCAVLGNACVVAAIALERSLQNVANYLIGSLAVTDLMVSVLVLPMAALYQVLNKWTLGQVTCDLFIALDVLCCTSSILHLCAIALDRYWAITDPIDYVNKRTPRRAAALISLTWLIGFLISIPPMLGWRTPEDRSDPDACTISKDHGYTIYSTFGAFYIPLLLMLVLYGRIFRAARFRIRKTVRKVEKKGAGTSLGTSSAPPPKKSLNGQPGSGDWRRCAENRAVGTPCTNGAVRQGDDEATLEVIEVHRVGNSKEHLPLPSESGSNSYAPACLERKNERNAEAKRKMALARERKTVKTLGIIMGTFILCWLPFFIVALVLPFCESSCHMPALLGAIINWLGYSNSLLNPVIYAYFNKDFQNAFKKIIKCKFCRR
Test: 5-HT syndrome (serotoninergic syndrome) in the male rat
Format: in vivo, male rat (Sprague-Dawley)
Set-up: carried out with the male rat (Sprague-Dawley); from tissue; host or cells: whole living rat (Sprague-Dawley)
Settings: FPT, po, read-out: ED50 FPT (reciprocal fore-paw treading)
Reported metric: ED50 (mg/kg)
I only need the number, in mg/kg, no unit after it.

Example cases with answers are listed next.
Any idea what ED50 was measured for Cc1ccnc(N2CCN([C@H]3CC[C@H](n4ncc(=O)n(C)c4=O)CC3)CC2)n1 ?
0.08

Also need Cc1cc(C)nc(N2CCN([C@H]3CC[C@H](Oc4cnn(C)c(=O)n4)CC3)CC2)n1 , thanks.
0.08

Also need Cn1ncc(O[C@H]2CC[C@H](N3CCN(c4nccc(C(F)(F)F)n4)CC3)CC2)nc1=O , thanks.
0.31

Also need Cc1ccnc(N2CCN([C@H]3CC[C@H](Oc4cnn(C)c(=O)n4)CC3)CC2)n1 , thanks.
0.08

Also need COc1ccnc(N2CCN([C@H]3CC[C@H](Oc4cnn(C)c(=O)n4)CC3)CC2)n1 , thanks.
0.31

Next:
Any idea what ED50 was measured for Cn1c(=O)cnn([C@H]2CC[C@H](N3CCN(c4ncccn4)CC3)CC2)c1=O ?
1.25
